- Tested on: ATP;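 also: ATP exposure 15 min at 22 °C before imaging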
- run-description: switch fluorescence ratio, 500 uM ATP over buffer (Cy3 cluster intensity, sum of 5 cycles each) (fold (ratio)); higher = stronger signal-on switching upon ATP binding; sequences stand for … in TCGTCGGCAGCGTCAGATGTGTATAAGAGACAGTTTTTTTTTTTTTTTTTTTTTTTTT…TC
- experimental-context: aptamer strand: ATP DNA aptamer (quencher-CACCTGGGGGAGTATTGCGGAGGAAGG + anchor), 100 nM annealed; ATP concentration: 500 uM
experimental-endpoint: switch fluorescence ratio
// keep it numeric: no unit symbol after the value

Problem: Answer with the recorded switch fluorescence ratio for the sequence listed here: TTGTTTGGAT
Solution: 1.01

Problem: Answer with the recorded switch fluorescence ratio for the sequence listed here: TCGAAAGGCA
Solution: 1.04

Problem: Answer with the recorded switch fluorescence ratio for the sequence listed here: ATACACATCC
Solution: 1.06

Problem: Answer with the recorded switch fluorescence ratio for the sequence listed here: GTGGCGGGGG
Solution: 1.01

Problem: Answer with the recorded switch fluorescence ratio for the sequence listed here: TGGCCGGTGT
Solution: 0.991

Problem: Answer with the recorded switch fluorescence ratio for the sequence listed here: ACTCGGGGGA
Solution: 1.02

Problem: Answer with the recorded switch fluorescence ratio for the sequence listed here: TTTCAAGGGC
Solution: 1.04

Problem: Answer with the recorded switch fluorescence ratio for the sequence listed here: CGGCCGAGGA
Solution: 0.978

Problem: Answer with the recorded switch fluorescence ratio for the sequence listed here: ATCGCGGGCC
Solution: 1.03

Problem: Answer with the recorded switch fluorescence ratio for the sequence listed here: TTCTCGTTCT
Solution: 0.996

Problem: Answer with the recorded switch fluorescence ratio for the sequence listed here: TTGATAAGTT
Solution: 0.975

Problem: Answer with the recorded switch fluorescence ratio for the sequence listed here: CGGTTCGGTG
Solution: 0.981

Problem: Answer with the recorded switch fluorescence ratio for the sequence listed here: CGTTATTCGG
Solution: 0.965

Problem: Answer with the recorded switch fluorescence ratio for the sequence listed here: TTTTCGCTGT
Solution: 1.02

Problem: Answer with the recorded switch fluorescence ratio for the sequence listed here: CCATTGGGTA
Solution: 1.01

Problem: Answer with the recorded switch fluorescence ratio for the sequence listed here: GTTTGTACTC
Solution: 0.997

Problem: Answer with the recorded switch fluorescence ratio for the sequence listed here: CAGGGAAGGT
Solution: 1.01

Problem: Answer with the recorded switch fluorescence ratio for the sequence listed here: TGGCTGACAG
Solution: 0.992

Problem: Answer with the recorded switch fluorescence ratio for the sequence listed here: TGAACTTGAG
Solution: 1.01

Problem: Answer with the recorded switch fluorescence ratio for the sequence listed here: GGGTAGGAAA
Solution: 1.01

Problem: Answer with the recorded switch fluorescence ratio for the sequence listed here: GATCCGCTGG
Solution: 1.11

Problem: Answer with the recorded switch fluorescence ratio for the sequence listed here: TGGTTTTTCC
Solution: 1.11

Problem: Answer with the recorded switch fluorescence ratio for the sequence listed here: TTCCGAGTTT
Solution: 1.15

Problem: Answer with the recorded switch fluorescence ratio for the sequence listed here: TTGAGAGGAG
Solution: 0.98

Problem: Answer with the recorded switch fluorescence ratio for the sequence listed here: ATTGGTAGTG
Solution: 0.997

Problem: Answer with the recorded switch fluorescence ratio for the sequence listed here: ATGACCGGGG
Solution: 1.02

Problem: Answer with the recorded switch fluorescence ratio for the sequence listed here: GCACGGATGT
Solution: 1.03

Problem: Answer with the recorded switch fluorescence ratio for the sequence listed here: GAGATTTGAC
Solution: 1.01

Problem: Answer with the recorded switch fluorescence ratio for the sequence listed here: GGGGGGTGTT
Solution: 1.01

Problem: Answer with the recorded switch fluorescence ratio for the sequence listed here: AGCTTGAAG
Solution: 0.999

Problem: Answer with the recorded switch fluorescence ratio for the sequence listed here: AGTGCCTGCG
Solution: 1.02

Problem: Answer with the recorded switch fluorescence ratio for the sequence listed here: TATTTTTGGC
Solution: 1.01

Problem: Answer with the recorded switch fluorescence ratio for the sequence listed here: TTTTTGCGGC
Solution: 0.999

Problem: Answer with the recorded switch fluorescence ratio for the sequence listed here: ACTTGGTGGG
Solution: 0.986

Problem: Answer with the recorded switch fluorescence ratio for the sequence listed here: GCAAAAAGGA
Solution: 1.6

Problem: Answer with the recorded switch fluorescence ratio for the sequence listed here: GGGGGTGATG
Solution: 1

Problem: Answer with the recorded switch fluorescence ratio for the sequence listed here: GTAAGTAAGA
Solution: 1.03

Problem: Answer with the recorded switch fluorescence ratio for the sequence listed here: TAGTTTTTTG
Solution: 0.993

Problem: Answer with the recorded switch fluorescence ratio for the sequence listed here: TTTATTACCC
Solution: 1.02

Problem: Answer with the recorded switch fluorescence ratio for the sequence listed here: AGTCGGGCGT
Solution: 1

Problem: Answer with the recorded switch fluorescence ratio for the sequence listed here: GGCCTATTCC
Solution: 1.04
